Test system: S. pneumoniae mef A genotype (second strain so labelled)
Assay: CLSI broth dilution MIC determination
Assay type: cell-based
Details: Gram-positive
measure: MIC (µg/mL)

>>> recorded_number("CC[C@H]1OC(=O)[C@@](C)(F)C(=O)[C@H](C)[C@@H](O[C@@H]2OC(C)CC(N(C)C)C2O)[C@](C)(OC)C[C@@H](C)C(=O)[C@H](C)[C@H]2N(C/C=C/Cn3nnnc3-c3ccccn3)C(=O)O[C@]12C (some centres unmarked) [FSM-100386]")
0.0625
>>> recorded_number("CC[C@H]1OC(=O)[C@H](C)C(=O)[C@H](C)[C@@H](O[C@@H]2OC(C)CC(N(C)C)C2O)[C@](C)(OC)C[C@@H](C)C(=O)[C@H](C)[C@H]2N(C/C=C/Cn3cnc(-c4ccccn4)c3)C(=O)O[C@]12C (some centres unmarked) [FSM-100421]")
0.0625
>>> recorded_number("CC[C@H]1OC(=O)[C@@](C)(F)C(=O)[C@H](C)[C@@H](OC2OC(C)CC(N(C)C)C2O)[C@](C)(OC)C[C@@H](C)C(=O)[C@H](C)[C@H]2N(CCCCn3cc(-c4cccc(N)c4)nn3)C(=O)O[C@]12C (some centres unmarked) [Solithro, solithromycin, reference compound]")
0.125
>>> recorded_number("CC[C@H]1OC(=O)[C@H](C)C(=O)[C@H](C)[C@@H](O[C@@H]2OC(C)CC(N(C)C)C2O)[C@](C)(OC)C[C@@H](C)C(=O)[C@H](C)[C@H]2N(C/C=C/Cn3cc(-c4cccc(N)n4)nn3)C(=O)O[C@]12C (some centres unmarked) [FSM-100364]")
0.25
>>> recorded_number("CC[C@H]1OC(=O)[C@H](C)[C@@H](O[C@H]2C[C@@](C)(OC)[C@@H](O)[C@H](C)O2)[C@H](C)[C@@H](O[C@@H]2O[C@H](C)C[C@H](N(C)C)[C@H]2O)[C@](C)(O)C[C@@H](C)CN(C)[C@H](C)[C@@H](O)[C@]1(C)O [Azithro, azithromycin, reference compound]")
4
>>> recorded_number("CC[C@H]1OC(=O)[C@@](C)(F)C(=O)[C@H](C)[C@@H](O[C@@H]2OC(C)CC(N(C)C)C2O)[C@](C)(OC)C[C@@H](C)C(=O)[C@H](C)[C@H]2N(C/C=C/Cn3cc(-c4nccs4)nn3)C(=O)O[C@]12C (some centres unmarked) [FSM-11562]")
0.0625

====

Test system: S. pneumoniae ATCC 49619
Test: CLSI broth dilution MIC determination
Format: cell-based
Conditions: S. pneumoniae ATCC 49619; Gram-positive
Listing: MIC of selected molecules
measure: MIC

>>> result("CC[C@H]1OC(=O)[C@H](C)C(=O)[C@H](C)[C@@H](O[C@@H]2OC(C)CC(N(C)C)C2O)[C@](C)(OC)C[C@@H](C)C(=O)[C@H](C)[C@H]2N(CC3CC3Cn3cc(-c4cccc(N)c4)nn3)C(=O)O[C@]12C (single isomer, unassigned) [FSM-100428]")
"< 0.0312 µg/mL"
>>> result("CC[C@H]1OC(=O)[C@@](C)(F)C(=O)[C@H](C)[C@@H](O[C@@H]2OC(C)CC(N(C)C)C2O)[C@](C)(OC)C[C@@H](C)C(=O)[C@H](C)[C@H]2N(C/C=C/Cn3cc(-c4nccs4)nn3)C(=O)O[C@]12C (some centres unmarked)")
"≤ 0.0312 µg/mL"
>>> result("CC[C@H]1OC(=O)[C@H](C)C(=O)[C@H](C)[C@@H](O[C@@H]2OC(C)CC(N(C)C)C2O)[C@](C)(OC)C[C@@H](C)C(=O)[C@H](C)[C@H]2N(C/C=C/Cn3cc(-c4ccccn4)nn3)C(=O)O[C@]12C (some centres unmarked)")
"< 0.0312 µg/mL"
>>> result("CC[C@H]1OC(=O)[C@H](C)C(=O)[C@H](C)[C@@H](O[C@@H]2OC(C)CC(N(C)C)C2O)[C@](C)(OC)C[C@@H](C)C(=O)[C@H](C)[C@H]2N(CC#CCn3cc(-c4cccc(N)c4)nn3)C(=O)O[C@]12C (some centres unmarked)")
"≤ 0.0312 µg/mL"
>>> result("CC[C@H]1OC(=O)[C@H](C)C(=O)[C@H](C)[C@@H](O[C@@H]2OC(C)CC(N(C)C)C2O)[C@](C)(OC)C[C@@H](C)C(=O)[C@H](C)[C@H]2N(C/C=C/Cn3nnc(-c4ccccn4)n3)C(=O)O[C@]12C (some centres unmarked)")
"< 0.0312 µg/mL"
>>> result("CC[C@H]1OC(=O)[C@@](C)(F)C(=O)[C@H](C)[C@@H](O[C@@H]2OC(C)CC(N(C)C)C2O)[C@](C)(OC)C[C@@H](C)C(=O)[C@H](C)[C@H]2N(C/C=C/Cn3nnnc3-c3ccccn3)C(=O)O[C@]12C (some centres unmarked)")
"< 0.0312 µg/mL"
>>> result("CC[C@H]1OC(=O)[C@H](C)C(=O)[C@H](C)[C@@H](O[C@@H]2OC(C)CC(N(C)C)C2O)[C@](C)(OC)C[C@@H](C)C(=O)[C@H](C)[C@H]2N(C/C=C\\Cn3cc(-c4cccc(N)c4)nn3)C(=O)O[C@]12C (some centres unmarked)")
"< 0.0312 µg/mL"
>>> result("CC[C@H]1OC(=O)[C@@](C)(F)C(=O)[C@H](C)[C@@H](O[C@@H]2OC(C)CC(N(C)C)C2O)[C@](C)(OC)C[C@@H](C)C(=O)[C@H](C)[C@H]2N(C/C=C/Cn3nnc(-c4ccccn4)n3)C(=O)O[C@]12C (some centres unmarked)")
"< 0.0312 µg/mL"

====

Test system: S. pneumoniae ATCC 49619
Assay: CLSI broth dilution MIC determination
Type: cell-based
Details: S. pneumoniae ATCC 49619; Gram-positive
measure: MIC

>>> result("CC[C@H]1OC(=O)[C@@](C)(F)C(=O)[C@H](C)[C@@H](OC2OC(C)CC(N(C)C)C2O)[C@](C)(OC)C[C@@H](C)C(=O)[C@H](C)[C@H]2N(CCCCn3cc(-c4cccc(N)c4)nn3)C(=O)O[C@]12C (some centres unmarked) [Solithro, solithromycin, reference compound]")
"< 0.0312 µg/mL"
>>> result("CC[C@H]1OC(=O)[C@@](C)(F)C(=O)[C@H](C)[C@@H](O[C@@H]2OC(C)CC(N(C)C)C2O)[C@](C)(OC)C[C@@H](C)C(=O)[C@H](C)[C@H]2N(C/C=C/Cn3cc(-c4cnc(N)s4)nn3)C(=O)O[C@]12C (some centres unmarked)")
"≤ 0.0312 µg/mL"

====

# MIC per record follows
Tested on: S. pneumoniae erm B + mef A genotype
Experiment: CLSI broth dilution MIC determination
Assay type: cell-based
Conditions: S. pneumoniae erm B + mef A genotype; Gram-positive
From the text: MIC data was collected for the novel macrolides that this platform has produced against over 21 unique strains of B. subtilis, E. coli, S. aureus, S. pneumoniae, and H. influenzae, including several multidrug-resistant strains, with a special focus on macrolide resistant mechanisms (vide supra). Azithromycin (Azithro) and Solithromycin (Solithro) were included as a control macrolides in many cases. CLSI standard procedures for broth dilution MIC determination were used. […]
measure: MIC (µg/mL)

>>> recorded_number("CC[C@H]1OC(=O)[C@@](C)(F)C(=O)[C@H](C)[C@@H](O[C@@H]2OC(C)CC(N(C)C)C2O)[C@](C)(OC)C[C@@H](C)C(=O)[C@H](C)[C@H]2N(C/C=C/Cn3nnnc3-c3ccccn3)C(=O)O[C@]12C (some centres unmarked) [FSM-100386]")
0.25
>>> recorded_number("CC[C@H]1OC(=O)[C@@](C)(F)C(=O)[C@H](C)[C@@H](O[C@@H]2OC(C)CC(N(C)C)C2O)[C@](C)(OC)C[C@@H](C)C(=O)[C@H](C)[C@H]2N(C/C=C/Cn3cc(-c4nccs4)nn3)C(=O)O[C@]12C (some centres unmarked) [FSM-11562]")
0.25
>>> recorded_number("CC[C@H]1OC(=O)[C@H](C)C(=O)[C@H](C)[C@@H](O[C@@H]2OC(C)CC(N(C)C)C2O)[C@](C)(OC)C[C@@H](C)C(=O)[C@H](C)[C@H]2N(C/C=C/Cn3nnc(-c4ccccn4)n3)C(=O)O[C@]12C (some centres unmarked) [FSM-100371]")
0.25
>>> recorded_number("CC[C@H]1OC(=O)[C@@](C)(F)C(=O)[C@H](C)[C@@H](O[C@@H]2OC(C)CC(N(C)C)C2O)[C@](C)(OC)C[C@@H](C)C(=O)[C@H](C)[C@H]2N(C/C=C/Cn3nnc(-c4ccccn4)n3)C(=O)O[C@]12C (some centres unmarked) [FSM-100389]")
0.0625
>>> recorded_number("CC[C@H]1OC(=O)[C@H](C)C(=O)[C@H](C)[C@@H](O[C@@H]2OC(C)CC(N(C)C)C2O)[C@](C)(OC)C[C@@H](C)C(=O)[C@H](C)[C@H]2N(C/C=C/Cn3nnnc3-c3ccccn3)C(=O)O[C@]12C (some centres unmarked) [FSM-100376]")
0.25
>>> recorded_number("CC[C@H]1OC(=O)[C@H](C)C(=O)[C@H](C)[C@@H](O[C@@H]2OC(C)CC(N(C)C)C2O)[C@](C)(OC)C[C@@H](C)C(=O)[C@H](C)[C@H]2N(CC3CC3Cn3cc(-c4cccc(N)c4)nn3)C(=O)O[C@]12C (single isomer, unassigned) [FSM-100434]")
1
>>> recorded_number("CC[C@H]1OC(=O)[C@H](C)C(=O)[C@H](C)[C@@H](O[C@@H]2OC(C)CC(N(C)C)C2O)[C@](C)(OC)C[C@@H](C)C(=O)[C@H](C)[C@H]2N(CC#CCn3cc(-c4cccc(N)c4)nn3)C(=O)O[C@]12C (some centres unmarked) [FSM-100239]")
0.0625
>>> recorded_number("CC[C@H]1OC(=O)[C@H](C)C(=O)[C@H](C)[C@@H](O[C@@H]2OC(C)CC(N(C)C)C2O)[C@](C)(OC)C[C@@H](C)C(=O)[C@H](C)[C@H]2N(C/C=C/Cn3cc(-c4nccs4)nn3)C(=O)O[C@]12C (some centres unmarked) [FSM-11559]")
1
>>> recorded_number("CC[C@H]1OC(=O)[C@H](C)C(=O)[C@H](C)[C@@H](O[C@@H]2OC(C)CC(N(C)C)C2O)[C@](C)(OC)C[C@@H](C)C(=O)[C@H](C)[C@H]2N(C/C=C/Cn3cc(-c4ccccn4)nn3)C(=O)O[C@]12C (some centres unmarked) [FSM-100341]")
0.25
>>> recorded_number("CC[C@H]1OC(=O)[C@H](C)C(=O)[C@H](C)[C@@H](O[C@@H]2OC(C)CC(N(C)C)C2O)[C@](C)(OC)C[C@@H](C)C(=O)[C@H](C)[C@H]2N(CC3CC3Cn3cc(-c4cccc(N)c4)nn3)C(=O)O[C@]12C (single isomer, unassigned) [FSM-100428]")
0.0625
>>> recorded_number("CC[C@H]1OC(=O)[C@H](C)C(=O)[C@H](C)[C@@H](O[C@@H]2OC(C)CC(N(C)C)C2O)[C@](C)(OC)C[C@@H](C)C(=O)[C@H](C)[C@H]2N(C/C=C\\Cn3cc(-c4cccc(N)c4)nn3)C(=O)O[C@]12C (some centres unmarked) [FSM-100423]")
0.0625
>>> recorded_number("CC[C@H]1OC(=O)[C@@](C)(F)C(=O)[C@H](C)[C@@H](OC2OC(C)CC(N(C)C)C2O)[C@](C)(OC)C[C@@H](C)C(=O)[C@H](C)[C@H]2N(CCCCn3cc(-c4cccc(N)c4)nn3)C(=O)O[C@]12C (some centres unmarked) [Solithro, solithromycin, reference compound]")
0.25
>>> recorded_number("CC[C@H]1OC(=O)[C@@](C)(F)C(=O)[C@H](C)[C@@H](O[C@@H]2OC(C)CC(N(C)C)C2O)[C@](C)(OC)C[C@@H](C)C(=O)[C@H](C)[C@H]2N(C/C=C/Cn3cc(-c4cnc(N)s4)nn3)C(=O)O[C@]12C (some centres unmarked) [FSM-100240]")
0.125
>>> recorded_number("CC[C@H]1OC(=O)[C@H](C)C(=O)[C@H](C)[C@@H](O[C@@H]2OC(C)CC(N(C)C)C2O)[C@](C)(OC)C[C@@H](C)C(=O)[C@H](C)[C@H]2N(C/C=C/Cn3cc(-c4cccc(N)n4)nn3)C(=O)O[C@]12C (some centres unmarked) [FSM-100364]")
0.125
>>> recorded_number("CC[C@H]1OC(=O)[C@@](C)(F)C(=O)[C@H](C)[C@@H](O[C@@H]2OC(C)CC(N(C)C)C2O)[C@](C)(OC)C[C@@H](C)C(=O)[C@H](C)[C@H]2N(C/C=C\\Cn3cc(-c4cccc(N)c4)nn3)C(=O)O[C@]12C (some centres unmarked) [FSM-100431]")
8
